Readout type: melting point

Prompt: Need melting point of N#Cc1ccc(Nc2ccc(Cl)cc2)cc1 , thanks.
Response: 139 to 141 °C

Prompt: // query: C=CCn1c(SCCCCCCCCCCCC)nc2scc(-c3ccccc3)c2c1=O
Response: 84 to 86 °C

Prompt: One more molecule: Cc1cc([N+](=O)[O-])ccc1OCCO
Response: 93 to 95 °C

Prompt: Another molecule: CNCCCc1cc(-c2ccccc2)n[nH]1
Response: 98 to 100 °C

Prompt: Moving on to the next molecule: O=C(O)C1CCCN1C(=O)Cc1cccs1 (stereo not drawn)
Response: 139 to 141 °C

Prompt: Now consider CCCC(C(=O)O)N1CCN(C(=O)OC(C)(C)C)CC1 (stereo not drawn) .
Response: 149 to 151 °C

Prompt: Also NCC(O)c1ccccc1F (stereo not drawn) , if possible.
Response: 62 to 64 °C

Prompt: Subsequent entry: O=C(O)COc1ccc(Oc2ccccc2)cc1
Response: 127 to 129 °C

Prompt: Would you mind doing O=C(O)c1cc([N+](=O)[O-])ccc1N1CCCCC1 as well?
Response: 194 to 196 °C

Prompt: Repeat with O=C(O)CNCC1CC1
Response: 222 to 224 °C

Prompt: Please give the result for Cc1cc(C(=O)O)cc(C)c1OC(F)F too.
Response: 189 to 191 °C

Prompt: Let us now turn to Nc1nc2c(s1)CC(c1ccccc1)CC2 (stereo not drawn)
Response: 181 to 183 °C

Prompt: Then what about the molecule Cc1nn(-c2cccc(Cl)c2)nc1C(=O)O ?
Response: 202 to 204 °C

----------
Readout type: melting point

Prompt: I'd like to know its melting point. The compound in question is N=c1nc(S)ss1
Response: 192 to 196 °C

Prompt: What do we get for CC(C)(C)c1nnc(S)n1N ?
Response: 185 to 189 °C

Prompt: Param item: COc1cc(C(=O)N2CCCC(C(=O)O)C2)cc(OC)c1OC (configuration not stated)
Response: 189 to 191 °C

Prompt: Also Cn1cc(C(=O)O)c(-c2ccc(F)cc2F)n1 , if possible.
Response: 231 to 233 °C

Prompt: Here is the next compound: CCOC(=O)c1c(C)oc2ccc(O)cc12
Response: 136 to 138 °C

Prompt: Next compound: O=C1C=C(O)C(=O)c2ccccc21
Response: 192 to 194 °C

Prompt: And CN(CCO)C1(CN)CCCCC1 ?
Response: 73 to 75 °C

Prompt: Next entry: O=S(=O)(Nc1ccc(O)cc1)c1ccccc1
Response: 156 to 158 °C

Prompt: What would you report for CC(=O)c1ccc(N)cc1C ?
Response: 83 to 85 °C

Prompt: Follow-up item: N#CCC(=O)c1cccc([N+](=O)[O-])c1
Response: 149 to 151 °C

Prompt: How about CN(C)S(=O)(=O)c1cccc(NC(=S)NN)c1 ?
Response: 155 to 157 °C

Prompt: Follow-up entry: COC(=O)C(N)c1cc(C)c(O)c(C)c1 (configuration not stated)
Response: 147 to 149 °C

Prompt: Next record, please: CC(C)(C)OC(=O)NCCCC(N)=S
Response: 94 to 96 °C

Prompt: Entry to check: O=[N+]([O-])c1c(CCl)nc2ccccn12
Response: 152 to 154 °C

Prompt: Would you kindly repeat that for COc1ccccc1C(=O)Nc1ccc(O)cc1 ?
Response: 172 to 174 °C

Prompt: How about this compound: Nc1cc2ccccc2c(=O)[nH]1
Response: 319 to 321 °C

Prompt: What would you report for O=S(=O)(Cl)c1cc(Br)c(F)cc1F ?
Response: 34 to 36 °C

Prompt: Quick one: CNS(=O)(=O)c1ccc(Cl)c(C(=O)O)c1
Response: 171 to 173 °C

Prompt: Another compound to look at: CC(C)(C)C1CCc2c(sc3nc(S)nc(S)c23)C1 (configuration not stated)
Response: 301 to 303 °C

Prompt: Also CCc1cccc2c(CC#N)c[nH]c12 , if possible.
Response: 115 to 117 °C

Prompt: Do the same for Cc1cc(C)nc(SCC(=O)NN)n1 please
Response: 119 to 121 °C

Prompt: Queued: CNc1ncc(C(F)(F)F)cc1Cl
Response: 44 to 46 °C

Prompt: Continue with C#CCOc1c(Cl)cc(C=O)cc1OC
Response: 106 to 108 °C

Prompt: Do the same for Cc1cccc(NS(=O)(=O)c2cc(C(=O)O)c(Cl)cc2Cl)c1 please
Response: 172 to 174 °C

Prompt: Item: O=Cc1cnc(Cl)nc1
Response: 118 to 120 °C

Prompt: Also need Sc1nncn1-c1ccccc1 , thanks.
Response: 172 to 174 °C

Prompt: Then this compound: CC(C)(N)c1nnn[nH]1
Response: 251 to 253 °C

Prompt: Quick one: NS(=O)(=O)c1ccc(C(=O)CBr)cc1
Response: 149 to 151 °C

Prompt: Repeat with Nc1ccnn1Cc1ccc(Br)s1
Response: 83 to 85 °C

Prompt: Again, but for CCc1nnn[nH]1
Response: 93 to 95 °C

Prompt: Note, next up: Cc1ccc(C(N)=O)c(F)c1
Response: 145 to 147 °C

Prompt: // same read-out, input: CCOc1cc(C(=O)O)ccc1OC(F)F
Response: 159 to 161 °C

Prompt: Item: CCOC(=O)c1cnn2cc(Br)cnc12
Response: 141 to 143 °C

Prompt: Follow-up entry: O=C(NCc1ccco1)n1ccnc1
Response: 145 to 147 °C

Prompt: Also, Cc1nc(CNC(=O)OC(C)(C)C)ccc1C(=O)O please.
Response: 163 to 165 °C

Prompt: Next entry: Sc1nnc2sc3ccccc3n12
Response: 252 to 254 °C

Prompt: Try the compound Nc1nc(-c2c(F)cccc2F)cs1
Response: 179 to 181 °C

Prompt: What would you report for O=C(c1ccc(Br)c([N+](=O)[O-])c1)N1CCOCC1 ?
Response: 114 to 116 °C

Prompt: What do we get for Brc1nn2cc(-c3cccnc3)nc2s1 ?
Response: 230 to 232 °C

Prompt: Request: NNC(=O)Cc1ccncc1
Response: 91 to 93 °C

Prompt: What about this compound? O=C(O)C=Cc1ccccc1OC(F)(F)F
Response: 174 to 176 °C

Prompt: Would you mind doing CCOC(=O)c1cc(C)nc2onc(C)c12 as well?
Response: 64 to 66 °C

Prompt: And for Cc1cc(C(=O)CCl)c(C)n1-c1cc(Cl)cc(Cl)c1 ?
Response: 113 to 115 °C

Prompt: Entry to check: O=C(Nc1ccc(Br)cc1Cl)OCC(F)(F)F
Response: 70 to 72 °C

Prompt: And the next one, COC(=O)C1CC(O)CN1C(=O)c1ccc(F)cc1 (configuration not stated) ?
Response: 150 to 152 °C

Prompt: Record: NC(=S)NCc1ccccc1
Response: 163 to 165 °C

Prompt: Same thing, different compound: CCCCn1c(=O)[nH]c(=O)c2cc(C(=O)O)cnc21
Response: 216 to 218 °C

Prompt: How about O=Cc1ccccc1OCC(=O)NCC1CC1 ?
Response: 93 to 95 °C

Prompt: Now the compound Cc1sc(C(=O)O)cc1CS(C)(=O)=O
Response: 233 to 235 °C

Prompt: Continue with FC(F)(F)c1cnc(-n2cccn2)c(Cl)c1
Response: 50 to 52 °C

Prompt: Then this compound: CCn1c(NN)nc2ccccc2c1=O
Response: 159 to 161 °C

Prompt: Also, O=C(Cc1ccc(Br)cc1)NC(C(=O)O)c1ccccc1 (configuration not stated) please.
Response: 177 to 179 °C

Prompt: Then what about the compound Cc1ccc(N2CCCC2)c(C(=O)O)c1 ?
Response: 124 to 126 °C

Prompt: And for CCOc1cc(C=O)cc(Cl)c1O ?
Response: 145 to 147 °C

Prompt: // query: O=C(c1ccc(F)cc1)c1cnccn1
Response: 55 to 57 °C

Prompt: And O=S(=O)(Cl)c1ccc(C2CCCCC2)cc1 ?
Response: 49 to 51 °C

Prompt: // same read-out, input: N#CCc1cc2ccccc2nc1Cl
Response: 128 to 130 °C
